tested on: Human Gamma Globulin (HGG), GLOBUCEL®; assay: Viscosity of aqueous solutions of Human Gamma Globulin (Cambridge VISCOlab5000 or DV2T cone and plate viscometer); conditions: HGG 220 mg/mL; excipient 10 mg/mL; phosphate buffer pH 6.0; 25° C.
Structures can show the parent of a compound that is named as a salt.

compound	Viscosity, cP
O=C(O)c1cccnc1 [Nicotinic acid (acid form)]	20 cP
Cc1ncc(C[n+]2csc(CCO)c2C)c(N)n1 [Thiamine-HCl]	65 cP
O=C([O-])c1cccnc1.[Na+] [Nicotinic acid Sodium Salt]	95 cP
NC(=O)c1cccnc1 [Nicotinamide]	49 cP

###

Property: Viscosity, cP; scope: individual compounds
test system: Human Gamma Globulin (HGG), GLOBUCEL®; assay: Viscosity of aqueous solutions of Human Gamma Globulin (Cambridge VISCOlab5000 or DV2T cone and plate viscometer); conditions: HGG 220 mg/mL; excipient 10 mg/mL; histidine buffer pH 6.0; 25° C.
Where a name gives a salt, the structure may show the parent alone.
readout-type: Viscosity, cP (cP)

compound	tested-on	readout-type	recorded-result
Cc1ncc(C[n+]2csc(CCO)c2C)c(N)n1 [Thiamine-HCl]	Human Gamma Globulin (HGG), GLOBUCEL®	Viscosity, cP	95
NC(=O)c1cccnc1 [Nicotinamide]	Human Gamma Globulin (HGG), GLOBUCEL®	Viscosity, cP	43
O=C([O-])c1cccnc1.[Na+] [Nicotinic acid Sodium Salt]	Human Gamma Globulin (HGG), GLOBUCEL®	Viscosity, cP	81
O=C(O)c1cccnc1 [Nicotinic acid (acid form)]	Human Gamma Globulin (HGG), GLOBUCEL®	Viscosity, cP	18
